# measurement target: truncated PI3Kα (p110α/iSH2 p85α) (Homo sapiens (Human), UniProt P42336)
# Sequence (P42336 whole entry, the tested form may be a part): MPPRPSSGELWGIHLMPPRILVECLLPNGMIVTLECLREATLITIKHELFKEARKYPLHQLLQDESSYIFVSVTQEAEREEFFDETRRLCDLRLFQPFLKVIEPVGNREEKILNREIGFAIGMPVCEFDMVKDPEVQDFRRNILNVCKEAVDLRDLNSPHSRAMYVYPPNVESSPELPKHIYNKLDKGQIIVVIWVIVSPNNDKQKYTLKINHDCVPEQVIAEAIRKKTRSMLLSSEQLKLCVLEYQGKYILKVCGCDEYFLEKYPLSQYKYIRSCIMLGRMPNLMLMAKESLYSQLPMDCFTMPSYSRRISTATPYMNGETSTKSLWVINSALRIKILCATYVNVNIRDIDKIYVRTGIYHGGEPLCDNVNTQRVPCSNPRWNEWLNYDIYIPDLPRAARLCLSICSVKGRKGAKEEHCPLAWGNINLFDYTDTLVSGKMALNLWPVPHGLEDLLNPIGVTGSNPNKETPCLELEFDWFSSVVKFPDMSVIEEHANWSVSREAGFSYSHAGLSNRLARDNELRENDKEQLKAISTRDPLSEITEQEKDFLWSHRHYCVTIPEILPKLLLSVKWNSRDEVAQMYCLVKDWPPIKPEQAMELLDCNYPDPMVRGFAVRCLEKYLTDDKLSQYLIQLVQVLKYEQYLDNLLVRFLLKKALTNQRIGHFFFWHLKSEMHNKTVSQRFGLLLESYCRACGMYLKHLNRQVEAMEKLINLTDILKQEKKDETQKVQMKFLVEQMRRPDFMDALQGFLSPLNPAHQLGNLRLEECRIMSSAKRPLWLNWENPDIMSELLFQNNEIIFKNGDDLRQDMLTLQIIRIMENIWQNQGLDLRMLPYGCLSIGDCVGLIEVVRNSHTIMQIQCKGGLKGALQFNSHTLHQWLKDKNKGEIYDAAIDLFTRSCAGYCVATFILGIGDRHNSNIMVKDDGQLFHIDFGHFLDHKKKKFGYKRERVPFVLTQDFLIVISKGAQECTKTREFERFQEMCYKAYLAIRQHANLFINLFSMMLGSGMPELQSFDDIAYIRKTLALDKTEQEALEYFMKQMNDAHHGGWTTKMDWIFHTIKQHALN
# procedure text: PI3KA_Act fluorescence polarization kinase assay (Ki)
# Type: biochemical
# run conditions: 1 mM ATP
# Experimental: 2) p110α-iSH2 p85α Complex (Full Length p110α and p85α iSH2)(“PI3KA_Act”) […] The biochemical assays of kinase activity of full-length PI3Kα (full-length p110α/p85a) or truncated PI3Kα (p110α/iSH2 p85a) were conducted using a fluorescence polarization format similar to the procedure of Yuan J., et al., (2011) “PF-04691502, a Potent and Selective Oral Inhibitor of PI3K and mTOR Kinases with Antitumor Activity”, Mol Cancer Ther. 10, 2189-2199. […]
measured parameter: PI3KA_Act Ki

Solved entries:
Task: Any idea what its PI3KA_Act Ki is? The compound is CN1CC[C@H](OC(=O)N2CC[C@](C)(N3CCc4c(-c5cnc(N)nc5)nc(N5CCOCC5)nc43)C2)C1
Result: <0.018 nM

Task: Any idea what its PI3KA_Act Ki is? The compound is C[C@H]1COCCN1c1nc(-c2cnc(N)nc2)c2c(n1)N(C1CN(S(=O)(=O)C3CN(C(=O)OC(C)(C)C)C3)C1)CC2
Result: 0.100 nM

Task: Any idea what its PI3KA_Act Ki is? The compound is C[C@]1(N2CCc3c(-c4cnc(N)nc4)nc(N4CCOCC4)nc32)CCN(CC(N)=O)C1
Result: 0.074 nM

Consider the record given below.
Task: Any idea what its PI3KA_Act Ki is? The compound is CNS(=O)(=O)N1CC[C@@](C)(N2CCc3c(-c4cnc(N)nc4)nc(N4CCOCC4)nc32)C1
Result: 0.029 nM

====

# measurement target: truncated PI3Kα (p110α/iSH2 p85α) (Homo sapiens (Human))
# procedure text: PI3KA_Act fluorescence polarization kinase assay (Ki)
# Assay type: biochemical
# run conditions: 1 mM ATP
Parameter PI3KA_Act Ki: see the listing below.
Note: unit nM is implicit; provide only the numeric part.

Task: Any idea what its PI3KA_Act Ki is? The molecule is COCC(=O)N1CC[C@@](C)(N2CCc3c(-c4cnc(N)nc4)nc(N4CCOCC4)nc32)C1 [Example 280]
Result: 0.154

Task: Any idea what its PI3KA_Act Ki is? The molecule is C[C@H]1COCCN1c1nc(-c2cnc(N)nc2)c2c(n1)N([C@@]1(C)CCN(C(=O)CN(C)C)C1)CC2 [Example 483]
Result: 0.049

Task: Any idea what its PI3KA_Act Ki is? The molecule is CC1(C(=O)N2CC(C)(N3CCc4c(-c5cnc(N)nc5)nc(N5CCOCC5)nc43)C2)CC1 [Example 246]
Result: 0.060

Task: Any idea what its PI3KA_Act Ki is? The molecule is CC(C)(O)CN1CC[C@](C)(N2CCc3c(-c4cnc(N)nc4)nc(N4CCOCC4)nc32)C1 [Example 422]
Result: 0.415

Task: Any idea what its PI3KA_Act Ki is? The molecule is Cn1ccc(C(=O)N2CC[C@](C)(N3CCc4c(-c5cnc(N)nc5)nc(N5CCOCC5)nc43)C2)n1 [Example 391]
Result: 0.022

Task: Any idea what its PI3KA_Act Ki is? The molecule is CC1(N2CCc3c(-c4cnc(N)nc4)nc(N4CCOCC4)nc32)CNC1 [Example 199]
Result: 0.151

Task: Any idea what its PI3KA_Act Ki is? The molecule is CC(C)(N)C(=O)N1CC[C@@](C)(N2CCc3c(-c4cnc(N)nc4)nc(N4CCOCC4)nc32)C1.Cl [Example 289]
Result: 0.075

Task: Any idea what its PI3KA_Act Ki is? The molecule is CC1(N2CCc3c(-c4cnc(N)nc4)nc(N4CCOCC4)nc32)CCNCC1.Cl [Example 430]
Result: 0.785

Task: Any idea what its PI3KA_Act Ki is? The molecule is CCC(=O)N1CC[C@@](C)(N2CCc3c(-c4cnc(N)nc4)nc(N4CCOCC4)nc32)C1 [Example 261]
Result: 0.143

====

# measurement target: truncated PI3Kα (p110α/iSH2 p85α) (Homo sapiens (Human), UniProt P42336)
# procedure text: PI3KA_Act fluorescence polarization kinase assay (Ki)
# Type: biochemical
# run conditions: 1 mM ATP
Condition met means recorded PI3KA_Act Ki is 0.04 nM or above; Condition not met means it is below 0.04 nM.

Task: Given CC(C)C(=O)N1CC(N2CCc3c(-c4cnc(N)nc4)nc(N4CCOC[C@@H]4C)nc32)C1 , state whether its PI3KA_Act Ki is at least 0.04 nM.
Result: Condition met

Task: Given C[C@H]1COCCN1c1nc(-c2cnc(N)nc2)c2c(n1)N([C@@]1(C)CCN(C(=O)[C@]3(C)CCN3)C1)CC2.Cl , state whether its PI3KA_Act Ki is at least 0.04 nM.
Result: Condition not met

Task: Given C[C@@]1(N2CCc3c(-c4cnc(N)nc4)nc(N4CCOCC4)nc32)CCN(S(N)(=O)=O)C1 , state whether its PI3KA_Act Ki is at least 0.04 nM.
Result: Condition met

Task: Given CCC(C)(C)N1CCc2c(-c3cnc(N)nc3)nc(N3CCOCC3)nc21 , state whether its PI3KA_Act Ki is at least 0.04 nM.
Result: Condition met

Task: Given CC(C)[C@H](N)C(=O)N1CC[C@](C)(N2CCc3c(-c4cnc(N)nc4)nc(N4CCOCC4)nc32)C1.Cl , state whether its PI3KA_Act Ki is at least 0.04 nM.
Result: Condition met

More entries:
Task: Given C[C@]1(N2CCc3c(-c4cnc(N)nc4)nc(N4CCOCC4)nc32)CCN(C(=O)[C@H]2CCOC2)C1 , state whether its PI3KA_Act Ki is at least 0.04 nM.
Result: Condition not met

Task: Given C[C@@]1(N2CCc3c(-c4cnc(N)nc4)nc(N4CCOCC4)nc32)CCN(C(=O)CC#N)C1 , state whether its PI3KA_Act Ki is at least 0.04 nM.
Result: Condition met

Task: Given CNCC(C)(C)C(=O)N1CC[C@](C)(N2CCc3c(-c4cnc(N)nc4)nc(N4CCOCC4)nc32)C1.Cl , state whether its PI3KA_Act Ki is at least 0.04 nM.
Result: Condition not met

Task: Given CC(C)[C@@H](O)C(=O)N1CC[C@](C)(N2CCc3c(-c4cnc(N)nc4)nc(N4CCOC[C@@H]4C)nc32)C1 , state whether its PI3KA_Act Ki is at least 0.04 nM.
Result: Condition met

Task: Given C[C@]1(N2CCc3c(-c4cnc(N)nc4)nc(N4CCOCC4)nc32)CCN(CC(F)F)C1 , state whether its PI3KA_Act Ki is at least 0.04 nM.
Result: Condition met

Task: Given COCC(=O)N1CC[C@](C)(N2CCc3c(-c4cnc(N)nc4)nc(N4CCOCC4)nc32)C1 , state whether its PI3KA_Act Ki is at least 0.04 nM.
Result: Condition not met

====

# measurement target: truncated PI3Kα (p110α/iSH2 p85α) (Homo sapiens (Human), UniProt P42336)
# procedure text: PI3KA_Act fluorescence polarization kinase assay (Ki)
# Assay type: biochemical
# run conditions: 1 mM ATP
satisfied means recorded PI3KA_Act Ki is 900 pM or above; not satisfied means it is below 900 pM.

Please review the entries below; each comes with its answer.
Task: Given CC1(C)CN=C(N2CC[C@](C)(N3CCc4c(-c5cnc(N)nc5)nc(N5CCOCC5)nc43)C2)O1 [Example 8] , state whether its PI3KA_Act Ki is at least 900 pM.
Result: not satisfied

Task: Given CC(C)(N)COC(=O)N1CC[C@](C)(N2CCc3c(-c4cnc(N)nc4)nc(N4CCOCC4)nc32)C1.Cl [Example 412] , state whether its PI3KA_Act Ki is at least 900 pM.
Result: not satisfied

Task: Given Nc1ncc(-c2nc(N3CCOC[C@H]3CO)nc3c2CCN3C2CC(F)(F)C2)cn1 [Example 3] , state whether its PI3KA_Act Ki is at least 900 pM.
Result: satisfied

More entries:
Task: Given C[C@@H]1COCCN1c1nc(-c2cnc(N)nc2)c2c(n1)N([C@H]1CCN(S(C)(=O)=O)C1)CC2 [Example 145] , state whether its PI3KA_Act Ki is at least 900 pM.
Result: satisfied

Task: Given C[C@]1(N2CCc3c(-c4cnc(N)nc4)nc(N4CCOCC4)nc32)CCN(C(=O)c2cc[nH]n2)C1 [Example 389] , state whether its PI3KA_Act Ki is at least 900 pM.
Result: not satisfied

Task: Given C[C@H]1COCCN1c1nc(-c2cnc(N)nc2)c2c(n1)N([C@H]1CCN(C(=O)OC(C)(C)C)C1)CC2 [Example 76] , state whether its PI3KA_Act Ki is at least 900 pM.
Result: not satisfied
